Would you kindly list polymerase ribozyme fitness (log ratio) for each of these variants?
B1: TPR 5TU (parent)
chain: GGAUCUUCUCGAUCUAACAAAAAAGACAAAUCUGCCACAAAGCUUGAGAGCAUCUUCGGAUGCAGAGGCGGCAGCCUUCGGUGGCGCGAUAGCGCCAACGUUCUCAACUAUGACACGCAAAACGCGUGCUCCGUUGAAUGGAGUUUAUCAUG

variants of: B1; assay: polymerase ribozyme fitness, log enrichment relative to wild type (log ratio); higher = more active; in vitro selection for triplet polymerase activity
Variants at the floor of the assay were thinned out.

variant.name: G34U C51U G59U G88A G141U A142G U146G A147U
polymerase ribozyme fitness (log ratio): ≤ -4.2
--
variant.name: A40G A52C A66U C75G C79G A120C
polymerase ribozyme fitness (log ratio): ≤ -4.2
--
variant.name: A24C C72U C85G C131G G133U
polymerase ribozyme fitness (log ratio): ≤ -4.2
--
variant.name: A41C C85U C87U G133C G143A
polymerase ribozyme fitness (log ratio): -4.18
--
variant.name: C51U U53A C93A G124U
polymerase ribozyme fitness (log ratio): -3.59

For every item in the list below, what is its measured polymerase ribozyme fitness (log ratio)?
1. U90A
2. A28G A91C G126A
3. A41C C85G A113C
4. C14A A28U G46C U61A C95U U139C A150C
5. A52G U104G
6. G92C G124U G152U

Result block:
1. -4.07
2. ≤ -4.2
3. -4.19
4. ≤ -4.2
5. -1.26
6. -3.69

For every item in the list below, what is its measured polymerase ribozyme fitness (log ratio)?
1. G50U C57U G92C
2. C93A A107U A110G C114U U127G
3. C57U U151A
4. C96A A142U

Result block:
-0.983
≤ -4.2
-4.18
-1.24

For every item in the list below, what is its measured polymerase ribozyme fitness (log ratio)?
1. C10U A17G A52C C75U C99U U102C U127A U135A
2. C5A A21U G50A C85A C96A C118G G133C C149U
3. G86A C149A
4. A49C A119U

Result block:
1: ≤ -4.2; 2: ≤ -4.2; 3: ≤ -4.2; 4: ≤ -4.2
